systemName: hSyk (full length) (Homo sapiens, UniProt P43405)
Construct: Purified recombinant hSyk (full length)
assayProtocol: Inhibition of enzymatic Syk kinase activity (HTRF)
Type: biochemical
measurementConditions: IC50 for Syk inhibition, Table 2; read-out: Syk HTRF
Method: Purified recombinant hSyk (full length) and Zap70 (kinase domain) diluted in assay buffer are dispensed in 384 well proxi-plates. […] 50 nL of diluted compounds are added to the enzyme solutions and incubated for […] at room temperature, after which ATP and biotynilated peptide substrate are added. Substrate phosphorylation is a function of the HTRF signal measured following the addition of Cisbio-HTRF reagents.

| molecule | systemName | IC50, nM |
| --- | --- | --- |
| NCCCNc1cc2nc[nH]c(=O)c2c(Nc2ccc(N3CCOCC3)cc2)n1 [Example 13] | hSyk (full length) (Homo sapiens, UniProt P43405) | 5.66 |
| COc1ccc(-c2cc3ncn(C)c(=O)c3c(NCCc3ccccn3)n2)cc1OC [Example 189] | hSyk (full length) (Homo sapiens, UniProt P43405) | 258 |
| COCCOc1cc(-c2cc3ncn(C)c(=O)c3c(NCC(F)F)n2)ccc1OC [Example 270] | hSyk (full length) (Homo sapiens, UniProt P43405) | 139 |
| O=c1[nH]cnc2cc(N3CCS(=O)(=O)CC3)nc(Nc3ccc(N4CCOCC4)nc3)c12 [Example 305] | hSyk (full length) (Homo sapiens, UniProt P43405) | 823 |
| O=c1[nH]cnc2cc(NCc3ccncc3)nc(Nc3ccc(N4CCOCC4)cc3)c12 [Example 25] | hSyk (full length) (Homo sapiens, UniProt P43405) | 61 |
| O=c1[nH]cnc2cc(-c3cc(Cl)ccc3Cl)nc(Nc3ccc(N4CCOCC4)cc3)c12 [Example 254] | hSyk (full length) (Homo sapiens, UniProt P43405) | 1120 |
| CNc1cc(CNc2nc(-c3ccc(OC)c(OC)c3)cc3ncn(C)c(=O)c23)ccn1 [Example 183] | hSyk (full length) (Homo sapiens, UniProt P43405) | 126 |
| COc1cc(-c2cc3ncn(C)c(=O)c3c(NCC(F)F)n2)ccc1OCCCN1CCOCC1 [Example 366] | hSyk (full length) (Homo sapiens, UniProt P43405) | 113 |
| COc1ccc(-c2cc3ncn(C)c(=O)c3c(Nc3ccc4cn[nH]c4c3)n2)cc1OC [Example 418] | hSyk (full length) (Homo sapiens, UniProt P43405) | 531 |
| CNc1nc(-c2ccc(C(C)(C)O)nc2)cc2ncn(C)c(=O)c12 [Example 352] | hSyk (full length) (Homo sapiens, UniProt P43405) | 376 |
| COc1cc(-c2cc3ncn(C)c(=O)c3c(NC[C@H](C)O)n2)ccc1OCCCN1CCOCC1 [Example 372] | hSyk (full length) (Homo sapiens, UniProt P43405) | 114 |
| CN1CCC(c2ccc(Nc3nc(N4CCC(N5CCCCC5)CC4)cc4nc[nH]c(=O)c34)cc2)CC1 [Example 313] | hSyk (full length) (Homo sapiens, UniProt P43405) | 42.7 |
| COc1cc(-c2cc3ncn(C)c(=O)c3c(NCc3ccncc3)n2)ccc1N [Example 194] | hSyk (full length) (Homo sapiens, UniProt P43405) | 104 |
| CC(C)Nc1nc(-c2cnc3[nH]ccc3c2)cc2ncn(C)c(=O)c12 [Example 324] | hSyk (full length) (Homo sapiens, UniProt P43405) | 340 |
| CC(C)Nc1nc(-c2cnn(C)c2)cc2ncn(C)c(=O)c12 [Example 317] | hSyk (full length) (Homo sapiens, UniProt P43405) | 126 |
| Cn1cnc2cc(-c3cccc(S(C)(=O)=O)c3)nc(NC3CC3)c2c1=O [Example 349] | hSyk (full length) (Homo sapiens, UniProt P43405) | 375 |
| COc1ccc(-c2cc3ncn(C)c(=O)c3c(NCc3ccncc3)n2)cc1OC [Example 114] | hSyk (full length) (Homo sapiens, UniProt P43405) | 40 |
